What plant injury at 250 g/ha was measured for each of the following?
tested on: corn (Zea mays); assay: Test G Pre-Emergence Protocol; format: in vivo; details: Zea mays, pre-emergence, 312 h, 250 g ai/ha, evaluated after 13 days, read-out: Corn damage rating (100=total damage to plant; 0=no damage to plant)

Cc1cc([C@H]2CN(C)C(=O)[C@@H]2C(=O)Nc2ccccc2S(C)(=O)=O)cc(C(F)(F)F)c1 (racemic) :: 80%
CN1C[C@@H](c2ccc(CF)cc2)[C@H](C(=O)Nc2cccc(F)c2F)C1=O (racemic) :: 70%
COC(=O)c1sccc1NC(=O)[C@@H]1C(=O)N(C)C[C@H]1c1ccc(C(F)(F)F)cc1 (racemic) :: 0%
CN1C[C@H](c2cccc(C(C)(C)C#N)c2)[C@@H](C(=O)Nc2ccccc2F)C1=O (racemic) :: 0%

Give one value of plant injury at 250 g/ha per listed compound.
1. Cc1cccc(NC(=O)[C@H]2C(=O)N(C)C[C@@H]2c2ccc(C(F)(F)F)cc2)[n+]1[O-] (racemic)
2. CN1C[C@H](c2ccc(C(F)F)cc2)[C@@H](C(=O)Nc2cnccc2C(F)(F)F)C1=O (racemic)
3. Cc1cc(C2CN(C)C(=O)C2C(=O)Nc2cccc(F)c2F)cc(C(F)(F)F)c1 (stereo not shown)

["0%", "80%", "60%"]
